Param label: returns Criterion met when melting point < 200 °C, returns Criterion not met otherwise, including exact equality.

Example results:
>>> df
                              smiles_record     category_label
0  NC(=O)c1ccc(-n2c3ccccc3c3c(-c4ccc(C(F)(F)F)nc4)cccc32)cc1NCCCO      Criterion met
1  COc1cncc(-c2cccc3c2c2ccccc2n3-c2ccc(C(N)=O)c(N[C@H]3CC[C@H](O)CC3)c2)c1  Criterion not met
2  N#Cc1ccc(-c2cccc3c2c2ccccc2n3-c2ccc(C(N)=O)c(NC3CCOCC3)c2)cn1  Criterion not met

INPUT: Threshold test, melting point < 200 °C: `NC(=O)c1ccc(-n2c3ccccc3c3c(-c4cncc(OCc5ccccc5)c4)cccc32)cc1NCCCO`
OUTPUT: Criterion met

INPUT: Param item: `N#Cc1ccc(-c2cccc3c2c2ccccc2n3-c2ccc(C(N)=O)c(N[C@H]3CC[C@H](O)CC3)c2)cn1`
OUTPUT: Criterion not met

INPUT: Same question, `NC(=O)c1ccc(-c2cccc3c2c2ccccc2n3-c2ccc(C(N)=O)c(N[C@H]3CC[C@H](O)CC3)c2)cn1` this time
OUTPUT: Criterion not met

###

- Test target: Hsp82 (Saccharomyces cerevisiae, UniProt P02829)
- Sequence (P02829 whole entry): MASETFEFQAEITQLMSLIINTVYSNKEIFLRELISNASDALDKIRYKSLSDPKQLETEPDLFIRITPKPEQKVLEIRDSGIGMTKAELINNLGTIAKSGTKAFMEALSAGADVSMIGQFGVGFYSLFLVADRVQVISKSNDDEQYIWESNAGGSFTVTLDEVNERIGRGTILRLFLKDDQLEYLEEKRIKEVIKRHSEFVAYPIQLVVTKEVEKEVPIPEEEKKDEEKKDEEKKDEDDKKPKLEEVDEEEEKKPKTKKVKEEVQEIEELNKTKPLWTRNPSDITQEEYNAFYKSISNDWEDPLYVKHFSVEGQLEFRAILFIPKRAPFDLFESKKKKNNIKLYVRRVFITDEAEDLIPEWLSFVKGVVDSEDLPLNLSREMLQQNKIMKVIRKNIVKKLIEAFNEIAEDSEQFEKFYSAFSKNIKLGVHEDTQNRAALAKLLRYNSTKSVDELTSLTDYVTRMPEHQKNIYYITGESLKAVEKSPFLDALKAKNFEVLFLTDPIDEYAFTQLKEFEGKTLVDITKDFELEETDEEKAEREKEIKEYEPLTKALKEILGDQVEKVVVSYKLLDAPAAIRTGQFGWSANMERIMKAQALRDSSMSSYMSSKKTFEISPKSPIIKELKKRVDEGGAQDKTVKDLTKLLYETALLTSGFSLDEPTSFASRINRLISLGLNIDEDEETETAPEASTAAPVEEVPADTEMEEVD
- Test details: Hsp82/ATPase test (malachite green or PK/LDH coupled method)
- Assay type: biochemical
- Conditions: 1 μM Hsp82, 250 μM ATP, 37° C.; read-out: Hsp82 ATPase IC50
pIC50: −log10 of the molar value.
Could you please report measured pIC50 for the items listed next?

Known pIC50 results, listed for orientation:
>>> print(df.to_string())
                              smiles_record                               test_target        result
0  COC[C@H](C)Nc1cc(-n2c3ccccc3c3c(-c4nc5ccc(F)cc5[nH]4)cccc32)ccc1C(N)=O  Hsp82 (Saccharomyces cerevisiae, UniProt P02829)        > 6.00
1  C[C@H](N)C(=O)O[C@H]1CC[C@H](Nc2cc(-n3c4ccccc4c4c(-c5nc6ccc(F)cc6[nH]5)cccc43)ccc2C(N)=O)CC1  Hsp82 (Saccharomyces cerevisiae, UniProt P02829)        > 6.00
2  C[C@H](NC(=O)OC(C)(C)C)C(=O)O[C@H]1CC[C@H](Nc2cc(-n3c4ccccc4c4c(-c5nc6ccc(F)cc6[nH]5)cccc43)ccc2C(N)=O)CC1  Hsp82 (Saccharomyces cerevisiae, UniProt P02829)  5.00 to 6.00

// batch mode: one pIC50 value per listed entry
1. NC(=O)c1ccc(-n2c3ccccc3c3c(-c4ccc(CO)nc4)cccc32)cc1N[C@H]1CC[C@H](O)CC1
2. NCCC(=O)O[C@H]1CC[C@H](Nc2cc(-n3c4ccccc4c4c(-c5nc6ccc(F)cc6[nH]5)cccc43)ccc2C(N)=O)CC1
3. NC(=O)c1ccc(-n2c3ccccc3c3c(-c4cncc(OCc5ccccc5)c4)cccc32)cc1NCCCO

OUTPUT:
1: > 6.00; 2: 5.00 to 6.00; 3: 5.00 to 6.00
